Cited source for all entries: BindingDB's records for PubMed 9353361

Target: Gamma-aminobutyric acid receptor subunit alpha-5 (Rattus norvegicus)
Sequence (P19969 whole entry): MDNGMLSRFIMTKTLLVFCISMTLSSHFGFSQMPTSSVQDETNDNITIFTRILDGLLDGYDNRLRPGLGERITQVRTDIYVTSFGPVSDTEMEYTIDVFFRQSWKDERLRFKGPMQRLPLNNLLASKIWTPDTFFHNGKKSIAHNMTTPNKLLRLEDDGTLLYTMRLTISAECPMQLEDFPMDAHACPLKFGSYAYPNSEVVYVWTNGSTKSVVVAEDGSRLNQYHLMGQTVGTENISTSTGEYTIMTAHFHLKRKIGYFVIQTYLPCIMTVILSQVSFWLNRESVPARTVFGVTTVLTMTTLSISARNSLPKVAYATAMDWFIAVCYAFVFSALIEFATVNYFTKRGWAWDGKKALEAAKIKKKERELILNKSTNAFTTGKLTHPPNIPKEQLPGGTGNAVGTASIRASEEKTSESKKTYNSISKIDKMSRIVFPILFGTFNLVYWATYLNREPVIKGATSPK
result type: Ki (nM)
Please state the figure in nM; there is no need to write the unit.

What value of Ki has been recorded for this entry: CN1C(=O)CN=C(c2ccccc2)c2cc(C#N)ccc21
34
